Classify on glass transition temperature using low group = under 70 °C, middle group = from 70 °C up to 200 °C, high group = 200 °C and over

*CC(CCCCCCCCCCCC)COC(=O)NC(=O)c1cccc(C(=O)NC(=O)O*)c1 (repeat unit): middle group
*/C=C/c1ccc(-c2nnc(-c3ccc(/C=C/c4ccc5c(c4)c4cc(-c6ccc7c(c6)c6cc(*)ccc6n7CCCCCCCC)ccc4n5CCCCCCCC)cc3)n2-c2ccccc2)cc1 (repeat unit): middle group
*c1ccc(Oc2ccc(C(c3ccc(Oc4ccc(N5C(=O)c6ccc(Oc7ccc8c(c7)C(=O)N(*)C8=O)cc6C5=O)cc4)cc3)(C(F)(F)F)C(F)(F)F)cc2)cc1 (repeat unit): high group
*CCOCCOC(=O)CCCCCCCC(=O)O* (repeat unit): low group

Which bin, given its glass transition temperature, does *c1ccc(Oc2ccc(N3C(=O)c4cccc(Oc5c(Oc6cccc7c6C(=O)N(*)C7=O)cc(C(C)(C)C)cc5C(C)(C)C)c4C3=O)cc2)cc1 (repeat unit) occupy?
high group

Which band does *Oc1ccc(Oc2ccc(C(=O)c3ccc(-c4ccc(C(=O)c5ccc(*)cc5)cc4)cc3)cc2)cc1-c1ccccc1 (repeat unit) fall in?
middle group

Could you place *c1ccc(Cc2ccc(N3C(=O)c4ccc(S(=O)(=O)c5ccc6c(c5)C(=O)N(*)C6=O)cc4C3=O)cc2)cc1 (repeat unit) in its proper category? Many thanks.
high group

Form: Item = *Oc1ccc(C(c2ccc(OC(=O)Nc3ccc(Cc4ccc(NC(*)=O)cc4)cc3)cc2)(C(F)(F)F)C(F)(F)F)cc1 (repeat unit) ; Class = ?
middle group

Would you mind sorting *Oc1ccc(Nc2ccc(C(=O)c3ccc(C(=O)c4ccc(Nc5ccc(*)cc5)cc4)cc3)cc2)cc1 (repeat unit) into the appropriate category?
high group

Could you tell me which band *CC(*)(C)C(=O)OCCCCC (repeat unit) belongs to?
low group

Class? Entry: *c1cc(OCCCC)c(*)cc1OCCCC (repeat unit)
low group

Which glass transition temperature category applies to *c1ccc2c(c1)C(CCCCCC)(CCCCCC)c1cc(*)ccc1-2 (repeat unit) here?
middle group

Hi there! Could you help me figure out the category for *CCCCCCCCCCOc1ccc(/C=C/c2ccc(OCCCCCCCCCCOP(=O)(O*)OCCCCCCCCCCOc3ccc(/N=N/c4ccc(C#N)cc4)cc3)cc2)cc1 (repeat unit) please?
low group

Into which bin does this compound go? *CCc1ccc(*)c2ccccc12 (repeat unit)
middle group

====

propertyLabel: glass transition temperature (°C)
A number alone suffices; assume °C.

Some molecules with recorded glass transition temperature:
*C=Cc1cc(OC)c(C=Cc2cc(OC)c(*)cc2OC)cc1OCC(CC)CCCC (repeat unit): 113.00
*c1ccc(N(c2ccc(-c3ccc4c(c3)C(CCCCCCCC)(CCCCCCCC)c3cc(*)ccc3-4)cc2)c2ccc(C(C)CC)cc2)cc1 (repeat unit): 140.00
*c1cc2c(OCC(CC)CCCC)c3sc(-c4sc(*)c5c(F)c(C(=O)OCC(CC)CCCC)sc45)cc3c(OCC(CC)CCCC)c2s1 (repeat unit): 40.00

Entry *c1ccc2c(c1)C(CCCCCCCCCCCC)(CCCCCCCCCCCC)c1cc(*)ccc1-2 (repeat unit) ; glass transition temperature = 16.00

====

The following compounds are shown together with reported glass transition temperature values.
Number in °C, nothing else.

*CCCC(*)(C)CC (repeat unit): -23.00
*c1ccc(Oc2ccc(C(C)(C)c3ccc(Oc4ccc(N5C(=O)c6ccc(Oc7ccc(C(C)(C)c8ccc(Oc9ccc%10c(c9)C(=O)N(*)C%10=O)cc8)cc7)cc6C5=O)cc4)cc3)cc2)cc1 (repeat unit): 176.00
*CCCCCCCCCN1C(=O)c2ccc(Oc3ccc4c(c3)C(=O)N(*)C4=O)cc2C1=O (repeat unit): 89.00
*OP(=O)(Oc1ccc(Br)cc1)OC(CCl)COc1ccc(S(=O)(=O)c2ccc(OCC(*)CCl)cc2)cc1 (repeat unit): 58.00

Please turn your attention to the following entry.
Record *c1ccc(-c2ccc(-c3nc4ccc(-c5ccc6nc(*)c(-c7ccccc7)nc6c5)cc4nc3-c3ccccc3)cc2)cc1 (repeat unit) , field glass transition temperature: 404.00
